Organism: Homo sapiens
ASSAY COMMENT: Inhibition of DLODP in human HepG2 microsomal membrane assessed as reduction in [3H]OSP production at 50 mM using Glc3-0[3H]Man9-5GlcNAc2-PP-dolichol as substrate at pH 5.5 measured after 20 to 60 mins by scintillation counting
Format: cell membranes
Calls of active or inactive are those of the source. The rule behind the calls is not given here.
RECORDED METRIC: inhibition

Here is how some compounds turned out for inhibition.
>  <COMPOUND>
CO[C@H]1O[C@H](CO)[C@@H](O)[C@H](O)[C@@H]1O

>  <inhibition>
inactive

$$$$
>  <COMPOUND>
OC[C@H]1OC(O)[C@@H](O)[C@@H](O)[C@@H]1O (stereo partly drawn)

>  <inhibition>
inactive

$$$$
>  <COMPOUND>
CC(=O)N[C@@H]1[C@@H](O)[C@H](O[C@@H]2O[C@H](CO)[C@@H](O)[C@H](O)[C@@H]2O)[C@@H](CO)O[C@@H]1O

>  <inhibition>
30%

$$$$
>  <COMPOUND>
CC(=O)N[C@@H]1[C@@H](O)[C@H](O)[C@@H](CO)O[C@@H]1O

>  <inhibition>
inactive

$$$$
>  <COMPOUND>
CC(=O)N[C@@H]1[C@@H](O)[C@H](O[C@@H]2O[C@H](CO)[C@H](O)[C@H](O)[C@H]2O)[C@@H](CO)O[C@@H]1O

>  <inhibition>
inactive

$$$$
>  <COMPOUND>
CC(=O)N[C@@H]1[C@@H](O)[C@H](O[C@@H]2O[C@H](CO)[C@@H](O)[C@H](O)[C@H]2NC(C)=O)[C@@H](CO)O[C@@H]1O

>  <inhibition>
< 10%

$$$$

Read the next record carefully.
Param item = CO[C@@H]1O[C@H](CO)[C@@H](O)[C@H](O)[C@@H]1O ; retrieve measured inhibition. 10%
